I'd be grateful if you could share measured IC50 for these entries.
- Test system: Vero
- assay_details: Cytotoxicity against African green monkey Vero cells after 72 hrs by MTS assay
- Assay type: cell-based
- run_parameters: Chlorocebus sabaeus
Lab book: enter the figure in µM, no units written.

QUERY: Read the entry CC[C@@H]1OC(=O)[C@@H](C)[C@H](O[C@H]2C[C@@](C)(OC)[C@](O)(CN(C)Cc3ccc(-c4cn(CCCCCCC(=O)NO)nn4)cc3)[C@H](C)O2)[C@H](C)[C@H](O[C@@H]2O[C@H](C)C[C@H](N(C)C)[C@H]2O)[C@@](C)(OC)C[C@H](C)C(=O)[C@@H](C)[C@@H](O)[C@@]1(C)O and write its reported IC50.
RESULT: 1.55

QUERY: Read the entry CC[C@@H]1OC(=O)[C@H](C)[C@@H](O[C@@H]2C[C@](C)(OC)[C@H](O)[C@@H](C)O2)[C@@H](C)[C@@H](O[C@@H]2O[C@H](C)C[C@H](N(C)Cc3cccc(-c4cn(CCCCCCC(=O)NO)nn4)c3)[C@H]2O)[C@](C)(O)C[C@@H](C)CN(C)[C@H](C)[C@@H](O)[C@]1(C)O and write its reported IC50.
RESULT: 8.35

QUERY: Read the entry CC[C@@H]1OC(=O)[C@@H](C)[C@H](O[C@H]2C[C@@](C)(OC)[C@@H](O)[C@H](C)O2)[C@@H](C)[C@H](O[C@H]2O[C@@H](C)C[C@@H](N(C)C)[C@@H]2O)[C@](C)(O)C[C@H](C)CN(Cc2ccc(-c3cn(CCCCCCC(=O)NO)nn3)cc2)[C@H](C)[C@H](O)[C@@]1(C)O and write its reported IC50.
RESULT: 6.66
